target_under_test: UBE2E3
experiment: reporter assay of Huesken 2005; also: test concentration or dose not given here
test_settings: siRNA
Oligonucleotides are written 5' to 3', each unit as a sugar letter and its base; * is a phosphorothioate linkage, no mark a phosphodiester; rarer units and linkages stand in square brackets, end groups in braces. Plain capitals give the bases only. d = 2'-deoxy (DNA); r = 2'-OH (RNA)
measured_parameter: normalised inhibition (eCFP-eYFP dual reporter) (%)

substance	target_under_test	numeric_readout
sense rGrUrCrArGrGrGrArGrUrCrArUrCrUrGrUrCrUdTdT / antisense rArGrArCrArGrArUrGrArCrUrCrCrCrUrGrArCdTdG	UBE2E3	83.4
sense rUrCrArGrArArGrGrArGrCrUrArGrCrUrGrArAdTdT / antisense rUrUrCrArGrCrUrArGrCrUrCrCrUrUrCrUrGrAdAdT	UBE2E3	87.4
sense rGrCrGrArGrArCrCrCrArGrCrCrGrCrUrCrCrAdTdT / antisense rUrGrGrArGrCrGrGrCrUrGrGrGrUrCrUrCrGrCdTdG	UBE2E3	69.2

====

target_under_test: UBE2T
experiment: reporter assay of Huesken 2005
test_settings: siRNA
Oligonucleotides are written 5' to 3', each unit as a sugar letter and its base; * is a phosphorothioate linkage, no mark a phosphodiester; rarer units and linkages stand in square brackets, end groups in braces. Plain capitals give the bases only. d = 2'-deoxy (DNA); r = 2'-OH (RNA)
The substances listed here are annotated with their normalised inhibition (eCFP-eYFP dual reporter).
measured_parameter: normalised inhibition (eCFP-eYFP dual reporter) (%)

substance	numeric_readout
sense rCrCrCrUrCrArArCrArUrCrGrCrArArCrUrGrUdTdT / antisense rArCrArGrUrUrGrCrGrArUrGrUrUrGrArGrGrGdAdT	106
sense rCrGrArUrUrUrCrUrCrArCrUrCrCrArArUrUrUdTdT / antisense rArArArUrUrGrGrArGrUrGrArGrArArArUrCrGdGdA	107
sense rCrCrUrGrArGrArGrGrUrArCrCrCrArUrUrUrGdTdT / antisense rCrArArArUrGrGrGrUrArCrCrUrCrUrCrArGrGdAdA	78.5
sense rUrGrArUrUrCrUrGrCrUrGrGrArArGrGrArUrUdTdT / antisense rArArUrCrCrUrUrCrCrArGrCrArGrArArUrCrAdAdT	95.4
sense rArGrArArUrGrCrCrArGrArCrArGrUrGrGrArCdTdT / antisense rGrUrCrCrArCrUrGrUrCrUrGrGrCrArUrUrCrUdTdG	95
sense rGrArArGrCrArUrGrCrArArGrArCrArGrArArAdTdT / antisense rUrUrUrCrUrGrUrCrUrUrGrCrArUrGrCrUrUrCdTdC	97.1

====

target_under_test: Mmp7 (rat)
experiment: reporter assay of Huesken 2005
test_settings: siRNA
Oligonucleotides are given in HELM: sugar(base)linkage, 5' to 3'; d 2'-deoxyribose, r ribose, m 2'-O-methylribose, p phosphate. ss, as = sense and antisense strand
measured_parameter: normalised inhibition (eCFP-eYFP dual reporter)

RNA1{r(G)p.r(C)p.r(U)p.r(U)p.r(C)p.r(G)p.r(C)p.r(A)p.r(A)p.r(G)p.r(G)p.r(G)p.r(G)p.r(A)p.r(G)p.r(A)p.r(U)p.r(C)p.r(A)p.d(T)p.d(T)}|RNA2{r(U)p.r(G)p.r(A)p.r(U)p.r(C)p.r(U)p.r(C)p.r(C)p.r(C)p.r(C)p.r(U)p.r(U)p.r(G)p.r(C)p.r(G)p.r(A)p.r(A)p.r(G)p.r(C)p.d(C)p.d(A)}$$$RNA1{StrandType:ss}|RNA2{StrandType:as}$ 105%
RNA1{r(A)p.r(G)p.r(U)p.r(U)p.r(C)p.r(U)p.r(G)p.r(U)p.r(G)p.r(A)p.r(U)p.r(G)p.r(U)p.r(A)p.r(C)p.r(C)p.r(C)p.r(U)p.r(A)p.d(T)p.d(T)}|RNA2{r(U)p.r(A)p.r(G)p.r(G)p.r(G)p.r(U)p.r(A)p.r(C)p.r(A)p.r(U)p.r(C)p.r(A)p.r(C)p.r(A)p.r(G)p.r(A)p.r(A)p.r(C)p.r(U)p.d(G)p.d(G)}$$$RNA1{StrandType:ss}|RNA2{StrandType:as}$ 116%
RNA1{r(C)p.r(G)p.r(C)p.r(A)p.r(A)p.r(G)p.r(G)p.r(G)p.r(G)p.r(A)p.r(G)p.r(A)p.r(U)p.r(C)p.r(A)p.r(C)p.r(G)p.r(G)p.r(A)p.d(T)p.d(T)}|RNA2{r(U)p.r(C)p.r(C)p.r(G)p.r(U)p.r(G)p.r(A)p.r(U)p.r(C)p.r(U)p.r(C)p.r(C)p.r(C)p.r(C)p.r(U)p.r(U)p.r(G)p.r(C)p.r(G)p.d(A)p.d(A)}$$$RNA1{StrandType:ss}|RNA2{StrandType:as}$ 97.3%

====

target_under_test: P2rx2 (rat)
experiment: reporter assay of Huesken 2005
test_settings: siRNA
Oligonucleotides are written 5' to 3', each unit as a sugar letter and its base; * is a phosphorothioate linkage, no mark a phosphodiester; rarer units and linkages stand in square brackets, end groups in braces. Plain capitals give the bases only. d = 2'-deoxy (DNA); r = 2'-OH (RNA)
measured_parameter: normalised inhibition (eCFP-eYFP dual reporter) (%)

substance	numeric_readout
sense rArGrUrCrArUrCrArUrCrArArCrUrGrGrArArCdTdT / antisense rGrUrUrCrCrArGrUrUrGrArUrGrArUrGrArCrUdCdC	33.7
sense rArCrArGrCrUrCrUrArCrCrUrGrCrCrArUrUrCdTdT / antisense rGrArArUrGrGrCrArGrGrUrArGrArGrCrUrGrUdGdA	42.3
sense rUrGrArGrArArGrGrCrArGrGrArGrArGrArArCdTdT / antisense rGrUrUrCrUrCrUrCrCrUrGrCrCrUrUrCrUrCrAdAdC	32.3
sense rGrGrCrArGrGrGrArArArUrUrCrArGrUrCrUrCdTdT / antisense rGrArGrArCrUrGrArArUrUrUrCrCrCrUrGrCrCdTdG	51.5
sense rCrUrUrGrGrCrCrArGrCrArUrArUrGrGrGrArCdTdT / antisense rGrUrCrCrCrArUrArUrGrCrUrGrGrCrCrArArGdTdG	52
sense rUrUrGrCrCrArArGrUrArUrUrArCrArArGrArUdTdT / antisense rArUrCrUrUrGrUrArArUrArCrUrUrGrGrCrArAdAdC	56.7
sense rGrArGrGrArArUrArCrGrUrArArArGrCrCrCrCdTdT / antisense rGrGrGrGrCrUrUrUrArCrGrUrArUrUrCrCrUrCdCdA	34.9
sense rUrGrArCrCrCrUrUrGrCrCrCrUrUrGrUrCrUrUdTdT / antisense rArArGrArCrArArGrGrGrCrArArGrGrGrUrCrAdCdA	53.9
sense rUrUrGrCrArArGrCrCrArGrArArGrArGrUrGrAdTdT / antisense rUrCrArCrUrCrUrUrCrUrGrGrCrUrUrGrCrArAdTdG	72.8
sense rUrGrGrCrCrArCrUrGrCrUrCrUrGrArCrCrUrCdTdT / antisense rGrArGrGrUrCrArGrArGrCrArGrUrGrGrCrCrAdGdA	57
sense rCrUrGrGrArCrArUrGrCrArArGrGrCrArArUrGdTdT / antisense rCrArUrUrGrCrCrUrUrGrCrArUrGrUrCrCrArGdCdT	55.2
sense rArArCrArArGrCrUrCrUrArCrArGrCrCrArUrAdTdT / antisense rUrArUrGrGrCrUrGrUrArGrArGrCrUrUrGrUrUdTdT	76.6

====

The substances listed here are annotated with their normalised inhibition (eCFP-eYFP dual reporter).
target_under_test: UBE2W
experiment: reporter assay of Huesken 2005
test_settings: siRNA
Oligonucleotides are written 5' to 3', each unit as a sugar letter and its base; * is a phosphorothioate linkage, no mark a phosphodiester; rarer units and linkages stand in square brackets, end groups in braces. Plain capitals give the bases only. d = 2'-deoxy (DNA); r = 2'-OH (RNA)
measured_parameter: normalised inhibition (eCFP-eYFP dual reporter) (%)

substance	target_under_test	result_unit	numeric_readout
sense rArCrArCrArGrUrGrGrArUrUrGrUrArGrArCrAdTdT / antisense rUrGrUrCrUrArCrArArUrCrCrArCrUrGrUrGrUdAdA	UBE2W	%	99.3
sense rGrArGrArArGrArGrUrGrUrUrCrArArArArUrUdTdT / antisense rArArUrUrUrUrGrArArCrArCrUrCrUrUrCrUrCdAdT	UBE2W	%	116
sense rArGrArGrUrGrUrUrCrArArArArUrUrCrArArUdTdT / antisense rArUrUrGrArArUrUrUrUrGrArArCrArCrUrCrUdTdC	UBE2W	%	109
sense rArGrUrArGrUrCrGrArUrArUrCrCrUrUrUrUrGdTdT / antisense rCrArArArArGrGrArUrArUrCrGrArCrUrArCrUdAdA	UBE2W	%	124
sense rUrUrUrUrGrArCrUrCrUrCrCrUrCrArGrGrUrCdTdT / antisense rGrArCrCrUrGrArGrGrArGrArGrUrCrArArArAdGdG	UBE2W	%	95
sense rArCrArGrUrGrGrArUrUrGrUrArGrArCrArUrGdTdT / antisense rCrArUrGrUrCrUrArCrArArUrCrCrArCrUrGrUdGdT	UBE2W	%	110
sense rUrCrUrArArCrArGrArArGrArCrUrGrGrUrCrCdTdT / antisense rGrGrArCrCrArGrUrCrUrUrCrUrGrUrUrArGrAdAdT	UBE2W	%	73.3
sense rArArArArUrArUrUrCrCrUrGrUrUrCrArUrCrCdTdT / antisense rGrGrArUrGrArArCrArGrGrArArUrArUrUrUrUdCdA	UBE2W	%	53.5
sense rCrArUrUrArUrUrArGrCrArUrGrCrUrUrUrCrCdTdT / antisense rGrGrArArArGrCrArUrGrCrUrArArUrArArUrGdCdT	UBE2W	%	93.2
sense rArUrCrUrGrUrUrUrArUrCrCrArUrUrCrUrArAdTdT / antisense rUrUrArGrArArUrGrGrArUrArArArCrArGrArUdAdT	UBE2W	%	96.6
sense rCrUrArUrUrUrArArArUrUrUrArGrUrArGrUrCdTdT / antisense rGrArCrUrArCrUrArArArUrUrUrArArArUrArGdAdA	UBE2W	%	83.5
sense rUrGrCrGrArArCrArUrGrUrArArCrArArGrArAdTdT / antisense rUrUrCrUrUrGrUrUrArCrArUrGrUrUrCrGrCrAdCdA	UBE2W	%	104

These entries and their values trace back to the OligoGym collection.
